systemTested: Stimulator of interferon genes protein (Homo sapiens)
Sequence (Q86WV6 whole entry): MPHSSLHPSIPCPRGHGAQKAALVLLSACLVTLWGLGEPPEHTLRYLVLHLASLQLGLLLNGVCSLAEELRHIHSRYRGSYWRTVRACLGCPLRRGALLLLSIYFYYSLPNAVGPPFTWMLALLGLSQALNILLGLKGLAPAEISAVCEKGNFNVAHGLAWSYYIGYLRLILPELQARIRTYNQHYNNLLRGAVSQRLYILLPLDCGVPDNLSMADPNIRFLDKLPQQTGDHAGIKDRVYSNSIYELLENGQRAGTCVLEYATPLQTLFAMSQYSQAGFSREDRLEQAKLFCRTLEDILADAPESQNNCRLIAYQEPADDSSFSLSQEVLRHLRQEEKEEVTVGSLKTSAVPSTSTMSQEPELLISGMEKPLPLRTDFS
conditionNotes: THP1-Dual, filed as activator, dose 50.0 µM, time 24.0 hrs
observable: RLU

I = Cc1cc(C(=O)Nc2nc3cc(C(N)=O)ccc3n2CCCCNC(=O)OC(C)(C)C)n(C(C)C)n1
II = CCn1nc(C)cc1C(=O)Nc1nc2cc(C(N)=O)ccc2n1CCCCNC(=O)c1cc(C)nn1C
Request: API: POST /compare with I and II ; response names the item with higher RLU. Mark your selection by writing its label.
Response: II
(II: 93.3, I: 0.9)

1 = CCn1nc(C)cc1C(=O)NCCCCCn1c(NC(=O)c2cc(C)nn2CC)nc2cc(C(N)=O)ccc21
2 = Cn1cc(C(=O)Nc2nc3cc(C(N)=O)ccc3n2CCCCn2c(NC(=O)c3cn(C)nc3C(F)(F)F)nc3cc(C(N)=O)ccc32)c(C(F)(F)F)n1
Request: Between 1 and 2 , which one shows the larger RLU value? // respond with label for picked entry
Response: 2
(2: 7.7, 1: 1)

P = CCn1nc(C)cc1C(=O)NCCCCn1c(NC(=O)c2cc(C)nn2CC)nc2cc(C(N)=O)ccc21
Q = CC(C)(C)OC(=O)NCCCCn1c(NC(=O)c2cc3ccccc3o2)nc2cc(C(N)=O)ccc21
Request: Given P and Q , report the one with the higher recorded RLU. The response must carry the label of the picked entry.
Response: P
(P: 104, Q: 0.8)

###

systemTested: Stimulator of interferon genes protein (Homo sapiens)
conditionNotes: THP1-Dual, filed as activator, dose 50.0 µM, time 24.0 hrs
observable: RLU

As a guide, the following entries are already answered.
Cc1cc(C(=O)Nc2nc3cc(C(N)=O)ccc3n2CCCCNC(=O)OC(C)(C)C)n(C)n1: 0.9
CCn1nc(C)cc1C(=O)Nc1nc2cc(C(N)=O)cc(OCCCN)c2n1C: 101
CCn1nc(C)cc1C(=O)/N=c1\[nH]c2cc(C(N)=O)ccc2n1CCCCn1/c(=N/C(=O)c2cc(C)nn2CC)[nH]c2cc(C(N)=O)ccc21: 97.8
CCn1nc(C(F)(F)F)cc1C(=O)Nc1nc2cc(C(N)=O)ccc2n1CCCCNC(=O)OC(C)(C)C: 0.8
CCn1nc(C(F)(F)F)cc1C(=O)Nc1nc2cc(C(N)=O)ccc2n1C[C@@H](O)c1ccccc1: 0.7
CCn1nc(C)cc1C(=O)Nc1nc2cc(C(N)=O)ccc2n1CCCCCNC(=O)OC(C)(C)C: 16.3
CCn1nc(C)cc1C(=O)Nc1nc2cc(C(N)=O)ccc2n1CCCCN: 0.8
CCn1nc(C)cc1C(=O)Nc1nc2cc(C(N)=O)ccc2n1CCCCNC(=O)c1ccn[nH]1: 0.9
Cn1cc(C(=O)Nc2nc3cc(C(N)=O)ccc3n2CCCCNC(=O)OC(C)(C)C)c(C(F)(F)F)n1: 0.8
CCn1nc(C)cc1C(=O)Nc1nc2cc(C(=O)O)ccc2n1CCCCn1c(NC(=O)c2cc(C)nn2CC)nc2cc(C(=O)O)ccc21: 0.6

P = CCn1nc(C)cc1C(=O)Nc1nc2cc(C(N)=O)ccc2n1CCCCNC(=O)c1ccccc1
Q = NC(=O)c1ccc2c(c1)nc(NC(=O)c1cc3ccccc3o1)n2CCCCn1c(NC(=O)c2cc3ccccc3o2)nc2cc(C(N)=O)ccc21
R = CCn1nc(C)cc1C(=O)Nc1nc2cc(C(N)=O)cc(OC)c2n1C/C=C/Cn1c(NC(=O)c2cc(C)nn2CC)nc2cc(C(N)=O)cc(OCCCN)c21
S = CCn1nc(C)cc1C(=O)Nc1nc2cc(C(N)=O)ccc2n1CCCCNC(C)=O
Request: Rank the 4 compounds: largest RLU first, smallest last. Use the labels to give the requested order.
Response: R, P, Q, S
(R: 101, P: 7, Q: 0.9, S: 0.4)
